- Tested on: giant foxtail (Setaria faberii)
- ASSAY OVERVIEW: Test A preemergence
- Assay type: in vivo
- CONDITION CONTEXT: Setaria faberi, pre-emergence, 240 h, 500 g ai/ha, Preemergence, visual injury vs untreated controls after approximately 10 d; read-out: Foxtail, Giant plant response rating (0 to 100 scale where 0 is no effect and 100 is complete control)
VALUE TYPE: pest or weed control at 500 g/ha (%)
Give bare numbers, in %.

COc1cc(C(F)(F)F)ccc1[C@H]1CN(C)C(=O)[C@@H]1C(=O)Nc1ccccc1SC | 90

// each listed compound needs a value for pest or weed control at 500 g/ha
1. COc1c(F)ccc([C@H]2CNC(=O)[C@@H]2C(=O)Nc2ccc(F)c(F)c2F)c1Cl
2. Cc1cc(F)cc([C@H]2CN(C)C(=O)[C@@H]2C(=O)Nc2cccc(F)c2F)c1
3. CN1CC[C@H](c2cccc(Cl)c2)[C@@H](C(=O)Nc2cccc(F)c2F)C1=O

[A]
1. 90
2. 90
3. 100
